Data provenance is paper PMC2680390.

system-tested: T1, ERβ ligand-binding domain (site-specifically labeled terbium/streptavidin-biotin/ER-LBD construct) (site-specifically labeled with biotin; bound to streptavidin-terbium in the assay)
T1 chain: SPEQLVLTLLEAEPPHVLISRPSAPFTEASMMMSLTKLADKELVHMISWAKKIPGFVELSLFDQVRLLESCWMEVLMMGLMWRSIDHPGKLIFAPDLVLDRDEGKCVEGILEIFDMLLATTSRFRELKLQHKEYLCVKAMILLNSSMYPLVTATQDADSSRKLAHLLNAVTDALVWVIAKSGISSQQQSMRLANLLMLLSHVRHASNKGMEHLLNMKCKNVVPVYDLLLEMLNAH
test-protocol: FRET or BRET
quantity: Ki

• LTERHKILHRLLQEGSPSD [unlabeled peptide containing the NR Box II (LXXLL motif) of SRC-1] = 66 nM
